- system name: Proto-oncogene tyrosine-protein kinase ROS (Homo sapiens)
- assay setup: at 1 µM
Measured residual activity accompanies every entry in the list below.

compound: CC(C)(C)c1cc(C=C(C#N)C#N)cc(Br)c1O
residual activity, %: 108

compound: COc1cc(OC)c(/C=C2\C(=O)Nc3ccccc32)c(OC)c1
residual activity, %: 96

compound: O=C1NC(=O)c2c1c1c3ccccc3n3c1c1c2c2ccccc2n1C1CCC3O1
residual activity, %: 94

compound: O=c1[nH]c2ccccc2n1C1CCN(Cc2ccc(-c3nc4cc5[nH]cnc5cc4nc3-c3ccccc3)cc2)CC1
residual activity, %: 96

compound: C[S+]([O-])c1ccc(-c2nc(-c3ccc(F)cc3)c(-c3ccncc3)[nH]2)cc1 (configuration not stated)
residual activity, %: 117

compound: CCc1nc(-c2ccc(OC)cc2)[nH]c1-c1ccncc1
residual activity, %: 105

compound: COc1cc2ncnc(Nc3ccc(OCc4ccccc4)cc3)c2cc1OC
residual activity, %: 108

###

- system name: cAMP-dependent protein kinase catalytic subunit PRKX (Homo sapiens)
- assay setup: at 1 µM
Measured residual activity accompanies every entry in the list below.
reported endpoint: residual activity (%)

sample smiles: N/C(=N\[N+](=O)[O-])N/N=C\c1ccc(-c2cccc([N+](=O)[O-])c2)o1
system name: cAMP-dependent protein kinase catalytic subunit PRKX (Homo sapiens)
unit: %
result number: 76
//
sample smiles: CN[C@@H]1C[C@H]2O[C@@](C)([C@@H]1OC)n1c3ccccc3c3c4c(c5c6ccccc6n2c5c31)C(=O)NC4
system name: cAMP-dependent protein kinase catalytic subunit PRKX (Homo sapiens)
unit: %
result number: 0
//
sample smiles: O=C1Nc2ccc3ncsc3c2/C1=C/c1c[nH]cn1
system name: cAMP-dependent protein kinase catalytic subunit PRKX (Homo sapiens)
unit: %
result number: 24

###

- system name: PAS domain-containing serine/threonine-protein kinase (Homo sapiens)
- assay setup: at 1 µM

compound: CCCCc1c(-c2ccc(OC)cc2)[nH]c2nccnc12
unit: %
residual activity: 102
--
compound: O=Nc1c(-c2c(O)[nH]c3ccccc23)[nH]c2ccccc12
unit: %
residual activity: 112
--
compound: CNc1cc2c(Nc3cccc(Br)c3)ncnc2cn1
unit: %
residual activity: 128
--
compound: O=C1NC(=O)c2cc(Nc3ccc(F)cc3)c(Nc3ccc(F)cc3)cc21
unit: %
residual activity: 105
--
compound: O=C1NC(=O)/C(=C\c2ccc3nccnc3c2)S1
unit: %
residual activity: 87
--
compound: O=C(Nc1cccc(Nc2nccc(Nc3cccc(C(F)(F)F)c3)n2)c1)C1CC1
unit: %
residual activity: 75
--
compound: O=C1NC(=O)c2c1c1c3ccccc3[nH]c1c1[nH]c3cc(Br)ccc3c21
unit: %
residual activity: 89
--
compound: Cc1ccc(NC2=CC(=O)c3sc(C)nc3C2=O)cc1
unit: %
residual activity: 81
--
compound: COc1ccc(-c2cnc3c(-c4ccsc4)cnn3c2)cc1
unit: %
residual activity: 138
--
compound: O=c1cc(-c2cccc3c2Sc2ccccc2S3)oc(N2CCOCC2)c1
unit: %
residual activity: 109
--
compound: Oc1ccc(-c2nc(-c3ccc(F)cc3)c(-c3ccncc3)[nH]2)cc1
unit: %
residual activity: 92
--
compound: O=c1cc(N2CCOCC2)oc2c(-c3ccccc3)cccc12
unit: %
residual activity: 125
--
compound: c1ccc(-c2cnc(Nc3ccc(OCCN4CCCC4)cc3)s2)cc1
unit: %
residual activity: 81
--
compound: O=C(NC(NC(=S)Nc1ccc(F)c([N+](=O)[O-])c1)C(Cl)(Cl)Cl)C(c1ccccc1)c1ccccc1 (configuration not stated)
unit: %
residual activity: 103
--
compound: CC(=O)O/N=C1\C(=C2\C(=O)Nc3cc(Br)ccc32)Nc2ccccc21
unit: %
residual activity: 93
--
compound: C[S+]([O-])c1ccc(-c2nc(-c3ccc(F)cc3)c(-c3ccncc3)[nH]2)cc1 (configuration not stated)
unit: %
residual activity: 113
--
compound: COc1ccc(OC)c2c(=S)c3ccccc3[nH]c12
unit: %
residual activity: 108
--
compound: COc1cc2ncnc(Nc3ccc(Oc4ccccc4)cc3)c2cc1OC
unit: %
residual activity: 98
--
compound: CN(C)c1ccc(/C=C2\C(=O)Nc3ccccc32)cc1
unit: %
residual activity: 86
--
compound: CO[C@@H]1[C@H](N(C)C(=O)c2ccccc2)C[C@H]2O[C@]1(C)n1c3ccccc3c3c4c(c5c6ccccc6n2c5c31)C(=O)NC4
unit: %
residual activity: 85
--
compound: O=C1C(Cl)=C(N2C(=O)CCC2=O)C(=O)c2ccccc21
unit: %
residual activity: 100
--
compound: c1cc(-c2cnn3cc(-c4ccc(OCCN5CCCCC5)cc4)cnc23)ccn1
unit: %
residual activity: 106
